Target: human GLP-1 receptor (human, UniProt P43220 24-463)
Assay: cell-based or functional assay
measuredAttribute: cAMP Emax (1.0% HSA) (%)
One number for each entry, in %.

Worked cases, answers included:
# binder, testResult
records = [
    ("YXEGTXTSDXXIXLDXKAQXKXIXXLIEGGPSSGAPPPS (Y-Aib-EGT-αMeF(2F)-TSD-4Pal-Aib-I-αMeL-LD-Orn-K((2-[2-(2-Amino-ethoxy)-ethoxy]-acetyl)3-(γ-Glu)-CO-(CH2)10-CH3)AQ-Aib-K((2-[2-(2-Amino-ethoxy)-ethoxy]-acetyl)3-(γ-Glu)-CO-(CH2)10-CH3)-αMeF-I-(D-Glu)-αMeY-LIEGGPSSGAPPPS-NH2) [Example 437]", 91.2),
    ("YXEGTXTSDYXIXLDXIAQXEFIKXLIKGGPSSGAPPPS (Y-Aib-EGT-αMeF(2F)-TSDY-Aib-I-αMeL-LD-Orn-IAQ-Aib-EFIK((2-[2-(2-Amino-ethoxy)-ethoxy]-acetyl)-(γ-Glu)-(2-[2-(2-Amino-ethoxy)-ethoxy]-acetyl)-CO-(CH2)12-CO2H)-αMeY-LIK((2-[2-(2-Amino-ethoxy)-ethoxy]-acetyl)-(γ-Glu)-(2-[2-(2-Amino-ethoxy)-ethoxy]-acetyl)-CO-(CH2)12-CO2H)GGPSSGAPPPS-NH2) [Example 365]", 91),
    ("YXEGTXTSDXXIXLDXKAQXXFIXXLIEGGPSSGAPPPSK (Y-Aib-EGT-αMeF(2F)-TSD-4Pal-Aib-I-αMeL-LD-Orn-K((2-[2-(2-Amino-ethoxy)-ethoxy]-acetyl)2-(γ-Glu)-CO-(CH2)10-CH3)AQ-Aib-Orn-FI-(D-Glu)-αMeY-LIEGGPSSGAPPPSK((2-[2-(2-Amino-ethoxy)-ethoxy]-acetyl)2-(γ-Glu)-CO-(CH2)10-CH3)-NH2) [Example 418]", 98.8),
    ("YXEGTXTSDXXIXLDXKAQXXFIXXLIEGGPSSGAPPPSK (Y-Aib-EGT-αMeF(2F)-TSD-4Pal-Aib-I-αMeL-LD-Orn-K((2-[2-(2-Amino-ethoxy)-ethoxy]-acetyl)2-(γ-Glu)-CO-(CH2)10-CH3)AQ-Aib-4Pal-FI-(D-Glu)-αMeY-LIEGGPSSGAPPPSK((2-[2-(2-Amino-ethoxy)-ethoxyl-acetyl)2-(γ-Glu)-CO-(CH2)10-CH3)-NH2) [Example 420]", 109),
    ("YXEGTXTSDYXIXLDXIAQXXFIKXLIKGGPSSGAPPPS (Y-Aib-EGT-αMeF(2F)-TSDY-Aib-I-αMeL-LD-Orn-IAQ-Aib-Orn-FIK((2-[2-(2-Amino-ethoxy)-ethoxy]-acetyl)3-(γ-Glu)-CO-(CH2)12-CO2H)-αMeY-LIK((2-[2-(2-Amino-ethoxy)-ethoxy]-acetyl)3-(γ-Glu)-CO-(CH2)12-CO2H)GGPSSGAPPPS-NH2) [Example 478]", 108),
]

Next up:
Using known records, supply cAMP Emax (1.0% HSA) for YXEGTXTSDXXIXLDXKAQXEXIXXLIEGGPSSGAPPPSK (Y-Aib-EGT-αMeF(2F)-TSD-4Pal-Aib-I-αMeL-LD-Orn-K((2-[2-(2-Amino-ethoxy)-ethoxy]-acetyl)3-(Y-Glu)-CO-(CH2)10-CH3)AQ-Aib-E-αMeF-I-(D-Glu)-αMeY-LIEGGPSSGAPPPSK((2-[2-(2-Amino-ethoxy)-ethoxy]-acetyl)3-(γ-Glu)-CO-(CH2)10-CH3)-NH2) [Example 439] 97
